System: P. falciparum
Test protocol: Inhibition of growth of P. falciparum in red cell culture (tritiated hypoxanthine uptake, continuous exposure to chelator)
Format: cell-based
Study conditions: iron binding concentration of 100 µmol of iron per litre; 30 hours; Figure 1
Reported endpoint: percentage inhibition of growth after 30 hours as compared with the controls

| Compound | Observed value |
| --- | --- |
| Cc1c(O)c(=O)ccn1CCCCCC(=O)NCCC(=O)O | less than 12% |
| Cc1c(O)c(=O)ccn1CCN.Cl | more than 65% |
| CC(=O)N(O)CCCCCNC(=O)CCC(=O)N(O)CCCCCNC(=O)CCC(=O)N(O)CCCCCN | more than 65% |
| Cc1c(O)c(=O)ccn1CCCCCC(=O)O | less than 12% |
| Cc1c(O)c(=O)ccn1CCO | more than 65% |
| Cc1c(O)c(=O)ccn1C [compound 2, 3-hydroxy-1,2-dimethylpyridin-4-one] | more than 65% |
| COCCn1ccc(=O)c(O)c1C | more than 65% |
| Cc1c(O)c(=O)ccn1CCC(=O)O | more than 65% |
| CCc1c(O)c(=O)ccn1C [compound 9, 2-ethyl-3-hydroxy-1-methyl-pyridin-4-one] | more than 65% |
| CC1=NC=CC(=O)C1O (stereo not shown) [compound 3, 3-hydroxy-2-methylpyridin-4-one] | more than 65% |
